Just for reference, the Human Domainome abundance scans (Beltran et al. 2025) is where these values come from.

B1: Segment polarity protein dishevelled homolog DVL-3, residues 2 to 81; numbered along this chain, Q92997 (parent)
chain: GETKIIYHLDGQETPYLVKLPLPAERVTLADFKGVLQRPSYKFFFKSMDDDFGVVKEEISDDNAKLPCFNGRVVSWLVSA

Variants of: B1
Assay: abundance fitness (aPCA) (normalised: wild type 0, dead -1); higher = more abundant; growth selection in yeast, the domain comes from the species named
Conditions: Homo sapiens
Catalogue of variants with associated abundance fitness
property-measured: abundance fitness

F52L: 0.249
E57P: -0.475
T28F: -0.321
